Hey, just so you know, these numbers are from paper PMC6572996.

- Tested on: Balb/c 3T3 cells
- assay_overview: TPC assay (total protein content), Balb/c 3T3
- Format: cell-based, mouse
- measurement_setup: Balb/c 3T3, 72 h exposure, mean (n = 3) ± SEM; read-out: Inhibitory concentration IC50, TPC
pIC50: −log10 of the molar value.
assay_readout: pIC50

- O=[N+]([O-])[O-].[Ag+] [Silver nitrate]: 5.59

* * *

- Tested on: HepG2 cells
- assay_overview: TPC assay (total protein content), HepG2
- Format: cell-based, human
- measurement_setup: HepG2, 72 h exposure, mean (n = 3) ± SEM; read-out: Inhibitory concentration IC50, TPC
assay_readout: IC50

* O=[N+]([O-])[O-].[Ag+] [Silver nitrate] | 60.3 µM

* * *

- Test system: HepG2 cells
- assay_overview: Leakage LDH assay (cellular membrane integrity), HepG2
- Type: cell-based, human
- measurement_setup: HepG2, 72 h exposure, mean (n = 3) ± SEM; read-out: Inhibitory concentration IC50, LDH
assay_readout: IC50 (µM)

- O=[N+]([O-])[O-].[Ag+] [Silver nitrate]: 3.47
